Entry source: ChEMBL document CHEMBL1201862

Test system: NCI-H23
Experiment: NCI tumour cell line growth inhibition, 48 h
Activity calls are given as the source filed them. Rule as the data show it: active = GI50 up to about 1.1 µM and inactive = higher.
The following compounds are shown together with reported GI50 values.
observed-property: GI50

| compound | val |
| --- | --- |
| CC(O)CCCOC(c1ccccc1)(c1ccccc1)c1ccccc1 (stereo not given) | 14.1 µM (inactive) |
| C=C(CCC(=O)N(CCc1c[nH]c2ccccc12)C(=O)c1ccccc1CSCC)C(=O)OC | 31.9 µM (inactive) |
| CCn1c(=O)c2c3cc(O)ccc3oc2c2ccc(O)cc21 | 41.3 µM (inactive) |
| COC(=O)C(Cc1ccccc1)NC(=O)CSc1nnc(COc2ccc(Cl)cc2)n1-c1ccccc1 (stereo not given) | 22.3 µM (inactive) |
| CC(C)(C)C1CCC2c3c([nH]c4ccccc34)C3C(=O)N(c4ccc5c(c4)C(=O)c4ccccc4C5=O)C(=O)C3C2C1 (stereo not given) | > 100 µM (inactive) |

====

The following compounds are shown together with reported GI50 values.
Test system: 786-0
Assay: NCI tumour cell line growth inhibition, 48 h
Active and inactive are the calls of the source. No stated cut-off is given here; in the data, active = GI50 up to about 1.1 µM and inactive = higher.

| compound | experimental-system | GI50 |
| --- | --- | --- |
| Nc1ccn(CCO)c(=O)n1 | 786-0 | > 100 µM (inactive) |
| COC1[C@H](NC(=O)OC(C)(C)C)C(=O)N1Cc1ccccc1 (stereo not given in full) | 786-0 | > 100 µM (inactive) |
| COc1cc2ccnc([C@@H](OC(=O)c3ccccc3)c3ccc(OC)c(OC)c3OC)c2cc1OC | 786-0 | 35.6 µM (inactive) |
| Cc1cc2c(O)nc(N)nc2nc1C | 786-0 | > 100 µM (inactive) |
| CC(C)(C)N/N=C(\C(=O)Nc1ccc([N+](=O)[O-])cc1[N+](=O)[O-])c1nc2ccc([N+](=O)[O-])cc2nc1O | 786-0 | > 100 µM (inactive) |

====

Tested on: SK-OV-3
Test: NCI tumour cell line growth inhibition, 48 h
Calls of active or inactive are those of the source. Cut-off read from the data, not from the text of the source: active = GI50 up to about 1.1 µM and inactive = higher.
Classes used: active, inactive

| molecule | classification |
| --- | --- |
| CC(Nc1ccc(Cl)cc1)c1ccncc1 (centres undefined) | active |
| O=C(C#Cc1ccccc1)C1=Cc2ccccc2OC1 | inactive |
| CC(=O)Nc1ccc(C(=O)NN2C(=O)C(Cl)C2c2ccccc2)cc1 (centres undefined) | inactive |
| C/C(=C1/CCCC2(N=NCC2c2ccccc2)C1=O)c1ccccc1 (centres undefined) | inactive |

====

System: SK-OV-3
Test: NCI tumour cell line growth inhibition, 48 h
The source made the active and inactive calls. No stated cut-off is given here; in the data, active = GI50 up to about 1.1 µM and inactive = higher.
The following compounds are shown together with reported GI50 values.
observed-property: GI50

| compound | val |
| --- | --- |
| CC1CC(C)C(C#N)N(C)c2ccccc21 (stereo not given) | > 100 µM (inactive) |
| O=c1[nH]c(=O)n(C2CC(O)C(CO)O2)cc1C1=NC1 (stereo not given) | > 100 µM (inactive) |
| Cc1ccc(S(=O)(=O)OC2CCN(C)CC2)cc1 | > 100 µM (inactive) |
| O=[N+]([O-])c1ccc2c3c1[C@H]1O[C@H]1c1cccc(c1-3)[C@@H]1O[C@H]21 | 4.22 µM (inactive) |
| C/C=C(/C)C(=O)O[C@H]1[C@H](O)CC(c2ccc3c(c2O)C(=O)C2=C(O)C4(OC)C(=O)C(C(N)=O)=C(O)[C@H](CC(=O)c5ccccc5O)C4CC2[C@@]3(C)OC)O[C@@H]1C (stereo not given in full) | 0.00446 µM (active) |
| COc1ccc(CNc2nc3ccc(C(F)(F)F)cc3nc2-c2ccccc2)cc1OC | > 100 µM (inactive) |
| CC[C@@H]([C@H](O)c1ccccc1Cl)[N+](=O)[O-] | > 100 µM (inactive) |
| CCOC(=O)c1c(C)cc(=O)n2c1[nH]c1ccccc12 | > 100 µM (inactive) |
| O=S(O)CCCCCSSSCCCCCS(=O)O | > 100 µM (inactive) |
| O=C(O)c1ccccc1CN1CCCC(C(=O)O)C1 (stereo not given) | > 100 µM (inactive) |

====

Tested on: NCI-H522
Assay: NCI tumour cell line growth inhibition, 48 h
Activity calls are given as the source filed them. Rule as the data show it: active = GI50 up to about 1.1 µM and inactive = higher.

| compound | GI50 |
| --- | --- |
| Cc1cccc(C)c1N1C(=O)C(=O)C(c2nc3ccccc3s2)/C(=N\N)C1=O (stereo unspecified) | 39.4 µM (inactive) |
| C=CCCCCCCCCCOC1C=CC(OC(C)=O)C(COC(C)=O)O1 (stereo unspecified) | 26.5 µM (inactive) |
| C[N+](C)(C)CC1CCCCC1=O (stereo unspecified) | 19.1 µM (inactive) |
| C/C(=C1/CCCC2(N=NCC2c2ccccc2)C1=O)c1ccccc1 (stereo unspecified) | 14.8 µM (inactive) |
| CCCCCCOc1ccc(C(=O)NO)cc1 | 3.14 µM (inactive) |
| O=C(O)/C=C/C=C/c1ccc2c(c1)OCO2 | > 100 µM (inactive) |

====

Tested on: DU-145
Assay: NCI tumour cell line growth inhibition, 48 h
The source made the active and inactive calls. Rule as the data show it: active = GI50 up to about 1.1 µM and inactive = higher.
Classes used: active, inactive

| compound | classification |
| --- | --- |
| C=C(CCC(=O)N(CCc1c[nH]c2ccccc12)C(=O)c1ccccc1CSCC)C(=O)OC | inactive |
| Nc1nc(=S)n(-c2ccc(Cl)cc2)c2nc3ccccc3cc12 | inactive |
| Cc1ccc2c(=O)c(-c3n[nH]c(=S)s3)c[nH]c2n1 | inactive |
| COc1cc(NC(C)CCCN)c2nccc(C)c2c1 (stereo not given) | inactive |
| CC1=NNC(=O)[C@H]2[C@H]1CCC1[C@@H]2CC[C@]2(C)[C@@H](O)CC[C@@H]12 (stereo not given in full) | inactive |
| CC[C@@]1(O)C(=O)OCc2c1cc1n(c2=O)Cc2c-1nc1ccccc1c2/C=N\NC(=O)C1CCCN1 (stereo not given in full) | active |
| CCCCCCCCCCCCCCCCCCOC(COP(=O)(O)OCC1OC(n2cc(F)c(=O)[nH]c2=O)CC1O)COP(=O)(O)OCC1OC(n2ccc(N)nc2=O)C(O)C1O (stereo not given) | inactive |
| Cn1c2ccccc2c2cc(-c3ccccc3)c3c(c21)C(=O)C=CC3=O | inactive |
| N#Cc1c(Cl)c2ccccc2n2c1nc1ccccc12 | inactive |
| CC1=NN(c2cccc(Cl)c2)C2(C1=Cc1ccc(O)cc1)C(Cl)C(=O)N2c1nc2ccccc2s1 (stereo not given) | inactive |
| O=c1nc(N2CCCCC2)sc2[nH]c3ccccc3c12 | inactive |
| COc1cc2ncnc(Nc3cccc(Cl)c3)c2cc1OC | inactive |
| CC(=O)/C(=C\Nc1c(C)n(C)n(C)c1=O)C(=O)c1ccccc1 | inactive |
| Cc1ccc(N2C(=O)C3c4[nH]c5ccccc5c4C4CCC(C(C)(C)C)CC4C3C2=O)cc1 (stereo not given) | inactive |
| Cc1cc(OCC(=O)N/N=C/C(Br)=C/c2ccccc2)nc(SCC(=O)N/N=C/C(Br)=C/c2ccccc2)n1 | inactive |
| COc1cccc(Cc2cc(=O)c3ccc(C)nc3[nH]2)c1 | inactive |
| O=C(O)CCc1c2ccc(=O)c(O)c-2oc2c(O)c(O)ccc12 | inactive |
| C=C1C(=O)OC2CCN3CC=C(COC(=O)C(C)(O)C4(CO4)C1C)C23 (stereo not given) | inactive |
| O=C1C=CC(=O)C(CNc2ccc(C(=O)OC34CC5CC(CC(C5)C3)C4)cc2)=C1Br | inactive |
| CN(CCN1CCCC1)C1CCc2cc(Cl)c(Cl)cc2C1 (stereo not given) | inactive |

====

The following compounds are shown together with reported GI50 values.
Tested on: MDA-N
Assay: NCI tumour cell line growth inhibition, 48 h
Calls of active or inactive are those of the source. No stated cut-off is given here; in the data, active = GI50 up to about 1.1 µM and inactive = higher.

| compound | GI50 |
| --- | --- |
| OC(CCN1CCN(CCOC(c2ccccc2)c2ccccc2)CC1)c1ccc(Br)cc1 (stereo not drawn) | 10.9 µM (inactive) |
| O=[N+]([O-])c1ccc2c3c1[C@H]1O[C@H]1c1cccc(c1-3)[C@@H]1O[C@H]21 | 2.17 µM (inactive) |
| C=C(C)C(O)CCC1(C)C=Cc2c(c(C)cc3c2[nH]c2ccccc23)O1 (stereo not drawn) | 3.58 µM (inactive) |
| O=C1c2ccccc2C(=O)c2c(NC(=O)c3ccc4c5c(ncnc35)-c3ccccc3C4=O)cccc21 | > 100 µM (inactive) |
| CC(NC(=O)/C(=C/c1ccccc1)NC(=O)c1ccccc1)C(=O)O (stereo not drawn) | 55.8 µM (inactive) |
| CCCCCCCCCc1cc(=O)c2c(O)cc(O)cc2o1 | > 100 µM (inactive) |
| O=C(O)c1c(-c2ccccc2)c(=O)[nH]c2ccccc12 | > 100 µM (inactive) |
| CCOC(=O)C1(NC(=O)OC(C)(C)C)CCc2[nH]oc(=O)c2C1 (stereo not drawn) | > 100 µM (inactive) |
| CC(C)(N)CO[C@H]1C[C@H]2CC[C@@]1(C)C2(C)C | 15.5 µM (inactive) |
| CN1C(=O)N/C(=C\c2ccc(S(=O)(=O)N/N=C\C(O)C(O)C(O)CO)cc2)C1=O (stereo not drawn) | > 100 µM (inactive) |
| Cc1ccc2c(c1)C(=O)N1CCC[C@H]1C=N2 | 19.2 µM (inactive) |
| O=c1c2cc([N+](=O)[O-])ccc2n2n1Cc1ccccc1CC2 | > 100 µM (inactive) |
| O=S(=O)(c1ccccc1)n1c(C(O)c2ccncc2)cc2ccccc21 (stereo not drawn) | 39.1 µM (inactive) |
| Cc1cc(OC(=O)Nc2cccc3ccccc23)c(C(C)C)cc1C(=S)Nc1ccccc1 | 17.9 µM (inactive) |
| CCOC(=O)c1c(C)cc(=O)n2c1[nH]c1ccccc12 | 64 µM (inactive) |
| [O-][N+]1=C2CCC/C(=N/O)C2(O)C2CCCCC21N1CCOCC1 (stereo not drawn) | > 100 µM (inactive) |
| O=C1CCSc2nc(-c3ccc4c(c3)OCO4)nn21 | > 10 µM (inactive) |
| C=CC1ON(C)CCc2cc(OC)c(OC)cc21 (stereo not drawn) | > 100 µM (inactive) |
| CN(/N=C/C=N/N(C)C1=NCCN1)C1=NCCN1 | > 100 µM (inactive) |
| O=C(NNC(=S)NCc1ccccc1)c1csc(NC(=S)NC2CCCCC2)n1 | 28.9 µM (inactive) |
| CCCc1c2c3ccccc3nc-2nc2ccccn12 | 74.5 µM (inactive) |
| Nc1ncnc2c1cnn2Cc1ccc(Cl)cc1 | > 100 µM (inactive) |
| CSc1cnn(CCC#N)c(=O)n1 | > 100 µM (inactive) |
